# TESTED_TARGET: HDAC3 (Homo sapiens (Human))
# Sequence (O15379 whole entry): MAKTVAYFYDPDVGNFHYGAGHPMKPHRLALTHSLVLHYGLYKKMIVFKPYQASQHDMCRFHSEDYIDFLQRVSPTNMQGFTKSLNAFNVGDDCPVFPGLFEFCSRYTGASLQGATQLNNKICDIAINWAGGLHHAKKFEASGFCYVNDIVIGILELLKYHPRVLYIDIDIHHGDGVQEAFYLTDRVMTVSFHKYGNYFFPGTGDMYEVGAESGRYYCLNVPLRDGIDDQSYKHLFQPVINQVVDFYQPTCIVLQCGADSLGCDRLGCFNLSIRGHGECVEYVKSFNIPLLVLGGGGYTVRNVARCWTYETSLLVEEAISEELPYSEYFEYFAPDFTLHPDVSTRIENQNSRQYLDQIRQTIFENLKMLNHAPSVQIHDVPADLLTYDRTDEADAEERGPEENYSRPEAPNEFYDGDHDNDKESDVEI
# Sequence (Q9Y618 395-489 partner): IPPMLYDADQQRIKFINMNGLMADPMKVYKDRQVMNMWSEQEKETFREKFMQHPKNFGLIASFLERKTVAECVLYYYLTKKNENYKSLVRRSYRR
QUANTITY_MEASURED: pIC50
In simple prose, pIC50 is minus the logarithm base ten of a concentration in moles per litre.

query: What does the record list as pIC50 for Nc1ccc(-c2ccncc2)cc1NC(=O)c1ccc2c(c1)cc(C1CC1)n2CCN1CCOCC1 ?
result: 6.61

###

# TESTED_TARGET: HDAC1 (Homo sapiens (Human))
# Sequence (Q13547 whole entry): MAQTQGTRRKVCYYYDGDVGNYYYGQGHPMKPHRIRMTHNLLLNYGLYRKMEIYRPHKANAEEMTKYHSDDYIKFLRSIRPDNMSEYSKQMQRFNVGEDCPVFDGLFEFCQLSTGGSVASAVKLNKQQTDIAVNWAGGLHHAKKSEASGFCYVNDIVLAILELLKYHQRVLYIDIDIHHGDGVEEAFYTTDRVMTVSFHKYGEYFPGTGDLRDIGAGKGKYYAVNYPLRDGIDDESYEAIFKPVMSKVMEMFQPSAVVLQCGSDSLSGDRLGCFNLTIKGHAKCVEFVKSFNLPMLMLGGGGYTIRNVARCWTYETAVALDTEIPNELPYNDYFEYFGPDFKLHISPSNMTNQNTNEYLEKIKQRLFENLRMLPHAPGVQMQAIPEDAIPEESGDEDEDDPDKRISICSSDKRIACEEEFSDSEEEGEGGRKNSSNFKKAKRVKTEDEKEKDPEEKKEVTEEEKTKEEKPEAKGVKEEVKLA
# METHOD: HDAC enzyme assay
# Assay type: biochemical
# CONDITION_DESCRIPTION: enzyme pre-incubated with compound for 24 hours
# Protocol: Compounds for testing were diluted in DMSO to 50 fold the final concentration and a ten point three fold dilution series was made. […] The substrate tripeptide substrate 3 (synthesized in house) for each enzyme was equal to the Km as determined by a substrate titration curve. […] The substrate/trypsin mix was added to the enzyme/compound mix, the plate was shaken for 60 seconds and placed into a Spectramax M5 microtiter plate reader. […]
Below: a set of entries, each annotated with reported IC50.
Give the number; nM is assumed, so skip it.

Nc1ccc(-c2cccs2)cc1NC(=O)c1ccc2nc(N3CCNCC3)ccc2c1 = 4

query: What does the record list as IC50 for Nc1ccc(-c2ccncc2)cc1NC(=O)c1ccc2c(c1)cc(C1CC1)n2CCN1CCOCC1 ?
result: 27
